SYSTEM TESTED: CYP1A2 (Homo sapiens, UniProt P05177)
Sequence (P05177 2-516 limits assumed): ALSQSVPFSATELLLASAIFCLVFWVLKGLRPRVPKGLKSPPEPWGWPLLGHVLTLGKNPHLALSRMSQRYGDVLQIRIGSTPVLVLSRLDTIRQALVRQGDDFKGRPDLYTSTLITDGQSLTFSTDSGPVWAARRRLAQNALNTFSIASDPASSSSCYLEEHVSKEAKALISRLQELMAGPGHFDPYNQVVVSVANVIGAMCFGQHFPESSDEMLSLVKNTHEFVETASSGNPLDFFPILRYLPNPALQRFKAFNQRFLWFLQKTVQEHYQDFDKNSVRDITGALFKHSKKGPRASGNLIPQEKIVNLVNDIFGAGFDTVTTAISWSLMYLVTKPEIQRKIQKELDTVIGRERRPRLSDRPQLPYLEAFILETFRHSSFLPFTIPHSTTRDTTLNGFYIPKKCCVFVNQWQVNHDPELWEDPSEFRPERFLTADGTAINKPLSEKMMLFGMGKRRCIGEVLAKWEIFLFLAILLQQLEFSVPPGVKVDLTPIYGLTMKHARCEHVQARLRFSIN
ASSAY OVERVIEW: Vivid CYP450 Screening Kit, recombinant CYP1A2
RECORDED ENDPOINT: IC50

// query IC50 value for entry `CN1CCC(COc2cnc(-c3cccc(Cn4nc(-c5cccc(C#N)c5)ccc4=O)c3)nc2)CC1` > 50 µM

====

SYSTEM TESTED: ABCG2 (Homo sapiens, UniProt Q9UNQ0)
Sequence (Q9UNQ0 whole entry): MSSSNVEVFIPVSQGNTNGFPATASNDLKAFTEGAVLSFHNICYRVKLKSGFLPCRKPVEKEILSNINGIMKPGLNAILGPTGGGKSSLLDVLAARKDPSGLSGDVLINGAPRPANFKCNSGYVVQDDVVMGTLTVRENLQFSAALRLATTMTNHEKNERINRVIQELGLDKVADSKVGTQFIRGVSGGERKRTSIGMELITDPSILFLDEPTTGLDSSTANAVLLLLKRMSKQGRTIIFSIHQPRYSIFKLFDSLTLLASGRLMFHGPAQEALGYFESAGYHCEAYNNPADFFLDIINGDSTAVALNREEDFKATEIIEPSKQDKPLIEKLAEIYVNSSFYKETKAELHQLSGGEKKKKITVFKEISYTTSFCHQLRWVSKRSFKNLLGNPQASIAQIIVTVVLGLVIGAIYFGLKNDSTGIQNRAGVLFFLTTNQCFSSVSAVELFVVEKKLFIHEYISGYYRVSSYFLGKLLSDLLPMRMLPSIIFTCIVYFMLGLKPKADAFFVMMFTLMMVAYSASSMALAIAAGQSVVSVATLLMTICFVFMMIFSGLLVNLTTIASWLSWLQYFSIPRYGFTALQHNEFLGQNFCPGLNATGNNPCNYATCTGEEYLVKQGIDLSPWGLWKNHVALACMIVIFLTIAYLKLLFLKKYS
ASSAY OVERVIEW: Inhibitory accumulation assay in MDCKII-ABCG2 cells
Assay type: cell-based
ASSAY SETUP: 5 µM mitoxantrone, 1 h, read-out: IC50, relative mitoxantrone accumulation
RECORDED ENDPOINT: IC50 (µM)
Answer format: numeric, µM implied, no suffix.

// query IC50 value for entry `CN1CCC(COc2cnc(-c3cccc(Cn4nc(-c5cccc(C#N)c5)ccc4=O)c3)nc2)CC1` 29.9
